In this section, each of the compounds is paired with its reported combination Emax.
# System: MDA-MB-361 (Breast Carcinoma)
# test method notes: combination Emax (second highest fraction inhibited in the dose matrix, 72 h); higher = more inhibition; extreme values may be limits of the assay
Enter the number alone.

Looking up COc1cccc(OCCCN)c1-c1cc(Nc2cnc(C#N)cn2)n[nH]1 [Prexasertib] + O=C(c1cc(Cc2n[nH]c(=O)c3ccccc23)ccc1F)N1CCN(C(=O)C2CC2)CC1 [Olaparib] (first compound max 1 µM, 7x7, partner max 10 µM) , I see its combination Emax listed as 0.919

Reported combination Emax ( CC1(C)CCC(CN2CCN(c3ccc(C(=O)NS(=O)(=O)c4ccc(NCC5CCOCC5)c([N+](=O)[O-])c4)c(Oc4cnc5[nH]ccc5c4)c3)CC2)=C(c2ccc(Cl)cc2)C1 [Venetoclax] + CN(C)CCCOc1ccc(-c2ccc3ncc4c(c3c2)n(C2CCOCC2)c(=O)n4C)cn1 [AZD0156] (first compound max 1 µM, 7x7, partner max 1 µM) ) = 0.261

---

Listed here are molecules together with their documented Bliss excess.
# Test system: TE-9 (Esophageal Squamous Cell Carcinoma);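 further: after 72 h of two-drug dosing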
# test method notes: Bliss excess, mean over the matrix (fraction); higher = more synergy
Number, no unit, nothing else.

Completed entries (count: 2):
CCc1c2c(nc3ccc(O)cc13)-c1cc3c(c(=O)n1C2)COC(=O)[C@]3(O)CC [SN-38] + CN(C)CCCOc1ccc(-c2ccc3ncc4c(c3c2)n(C2CCOCC2)c(=O)n4C)cn1 [AZD0156] (first compound max 0.3 µM, 7x7, partner max 1 µM) | 0.0065
COc1cccc(OCCCN)c1-c1cc(Nc2cnc(C#N)cn2)n[nH]1 [Prexasertib] + C[C@@H]1COCCN1C2=NC(=NC(=C2)C3(CC3)[S@](=N)(=O)C)C4=C5C=CNC5=NC=C4 [AZD6738] (first compound max 1 µM, 7x7, partner max 10 µM) | -0.0233

Next molecule, please.
Record Cc1c2c(nn1C)CSCc1cc(n(C)n1)CSc1cc(c3ccccc3c1)OCCCc1c(C(=O)O)n(C)c3c-2c(Cl)ccc13 [AZD5991] + CN(C)CCCOc1ccc(-c2ccc3ncc4c(c3c2)n(C2CCOCC2)c(=O)n4C)cn1 [AZD0156] (first compound max 1 µM, 7x7, partner max 1 µM) has TE-9 (Esophageal Squamous Cell Carcinoma) Bliss excess equal to -0.0529

---

# Test system: MDA-MB-361 (Breast Carcinoma)
# test method notes: combination Emax (second highest fraction inhibited in the dose matrix, 72 h); higher = more inhibition; extreme values may be limits of the assay
property label: combination Emax
Just the number, please.

Cn1cnc2c(F)c(Nc3ccc(Br)cc3Cl)c(C(=O)NOCCO)cc21 [Selumetinib] + C[C@@H]1COCCN1C2=NC(=NC(=C2)C3(CC3)[S@](=N)(=O)C)C4=C5C=CNC5=NC=C4 [AZD6738] (first compound max 10 µM, 7x7, partner max 10 µM) | 0.795

// CCc1c2c(nc3ccc(O)cc13)-c1cc3c(c(=O)n1C2)COC(=O)[C@]3(O)CC [SN-38] + CN(C)CCCOc1ccc(-c2ccc3ncc4c(c3c2)n(C2CCOCC2)c(=O)n4C)cn1 [AZD0156] (first compound max 0.3 µM, 7x7, partner max 1 µM) : combination Emax value = 0.397

Kindly note the recorded combination Emax for COc1nnc2ccc(N3CCC(c4ccc(OCCN5CCN(C)C(=O)[C@H]5C)cc4)CC3)nn12 [AZD5153] + C[C@@H]1COCCN1C2=NC(=NC(=C2)C3(CC3)[S@](=N)(=O)C)C4=C5C=CNC5=NC=C4 [AZD6738] (first compound max 1 µM, 7x7, partner max 10 µM) , which is 0.82

The recorded combination Emax for entry COc1nnc2ccc(N3CCC(c4ccc(OCCN5CCN(C)C(=O)[C@H]5C)cc4)CC3)nn12 [AZD5153] + CCN(CCO)CCCOc1ccc2c(Nc3cc(CC(=O)Nc4cccc(F)c4)[nH]n3)ncnc2c1 [AZD2811] (first compound max 1 µM, 7x7, partner max 1 µM) equals 0.49
